observable: melting point

>  <molecule>
O=C(Nc1ccc(N2CCN(C(=O)Nc3ccc(OCCO)cc3C(F)(F)F)CC2)cc1)Nc1cccc2c1OCCO2

>  <melting point>
127 to 129 °C

$$$$
>  <molecule>
CC(C)(C)c1ccc2[nH]c(C(=O)c3ccc(Cl)cc3)c(CC(=O)O)c2c1

>  <melting point>
171 °C

$$$$
>  <molecule>
COc1ccc(CNC(=O)C(=O)NCCc2ccccn2)c(OC)c1

>  <melting point>
123 to 124 °C

$$$$

Memo: "CCCCc1ncc(/C=C2\C(=O)NC(=O)N2Cc2cccs2)n1Cc1ccc(C(=O)OC)cc1" , reported melting point: 164 to 165 °C

Memo: "O=c1oc2cccnc2n1CCN1CCN(c2cccc(C(F)(F)F)c2)CC1" , reported melting point: 92 to 93 °C

Memo: O=C(Nc1ccc(F)cc1)c1ccc(C2COC(c3c(F)cccc3F)=N2)cc1 (centres undefined) , reported melting point: 210 to 212 °C

Memo: "O=c1c(N2CCNCC2)nc2ccccc2n1-c1ccccc1Cl" , reported melting point: 135 to 137 °C

Memo: "COc1ccc2nc(Nc3ccc(F)cc3C)nc(N(C)c3ccccc3)c2c1" , reported melting point: 248 to 250 °C

Memo: O=C(O)C1C2CCC(O2)C1C(=O)NCCN1C(=O)NC(c2ccccc2)(c2ccccc2)C1=O (centres undefined) , reported melting point: 208 to 210 °C

---

Each entry below carries its recorded melting point.

>  <molecule>
O=c1[nH][nH]c(=S)n(CCO)c1=O

>  <value>
230 °C

$$$$
>  <molecule>
CC1C(=O)N(Cc2ccccc2)C(=S)N1c1ccc(Oc2ccccc2)cc1 (configuration not stated)

>  <value>
62 °C

$$$$
>  <molecule>
CCN(C(=O)OC)C1=CC(=O)CC1

>  <value>
68 to 68.5 °C

$$$$

Memo: "CC(C)(CO)Nc1cc(Cl)ccc1[N+](=O)[O-]" , reported melting point: 102 to 104 °C

Memo: "O=C(Nc1cccc2c(=O)nc[nH]c12)c1c(Cl)cccc1Cl" , reported melting point: > 250 °C

Memo: "CCCc1nc(N)nc(N)c1N1CCNCC1" , reported melting point: 175 to 176 °C

Memo: "N#CN(c1ccccc1)c1nc(N(C#N)c2ccccc2)nc(N(c2ccccc2)c2ccccc2)n1" , reported melting point: 280 to 284 °C

---

Each entry below carries its recorded melting point.

Below: 8 molecules and their reported melting point.
>  <molecule>
COc1cc(OC)c2c(=O)c(OCCOc3ccc(C(C)=O)cc3)c(-c3ccc(OC)c(OC)c3)oc2c1

>  <observable>
melting point

>  <value>
143 to 144 °C

$$$$
>  <molecule>
COC(=O)CCSCC(=O)c1ccc2[nH]c(=O)[nH]c2c1

>  <observable>
melting point

>  <value>
185 to 187 °C

$$$$
>  <molecule>
NC(=O)CCN1CCC(CNc2ccc(Cl)cc2C(=O)Nc2ccc(Cl)cn2)CC1

>  <observable>
melting point

>  <value>
193 to 196 °C

$$$$
>  <molecule>
COC(=O)c1ccc(-c2oc3nc[nH]c(=O)c3c2C(=O)OCc2ccccc2)cc1

>  <observable>
melting point

>  <value>
248 to 249 °C

$$$$
>  <molecule>
Cc1c(C=NO)c2ccccc2n1-c1ccc(O)cc1

>  <observable>
melting point

>  <value>
171 to 173 °C

$$$$
>  <molecule>
Cc1cccc2c1N(CC(=O)N1CC3CCC(CC3)C1)C(=O)C(NC(=O)Nc1cccc(C=O)c1)N=C2c1ccccc1F (centres undefined)

>  <observable>
melting point

>  <value>
237 to 242 °C

$$$$
>  <molecule>
CCOC(=O)c1cc(=O)c(Sc2ccccc2)co1

>  <observable>
melting point

>  <value>
79 to 81 °C

$$$$
>  <molecule>
CC1CC2C3CCC4CC(O)CCC4(C)C3C(=O)CC2(C)C1C1(C)OCCO1 (centres undefined)

>  <observable>
melting point

>  <value>
122 to 124 °C

$$$$

Then this molecule:
Memo: "Cc1cc(OC(F)(F)C(Cl)Cl)c([N+](=O)[O-])cc1S(=O)(=O)C=CC#N" , reported melting point: 109 °C

Hello, the source for this data is a melting point compilation (Tetko et al.; mined from patent text by program, amines drawn as free bases though some values may be those of a salt), in case you need it.
